The measured values listed here are drawn from paper PMC9543606.

- TEST_SYSTEM: VEGF (Homo sapiens, UniProt P15692)
- Sequence (P15692 219-313): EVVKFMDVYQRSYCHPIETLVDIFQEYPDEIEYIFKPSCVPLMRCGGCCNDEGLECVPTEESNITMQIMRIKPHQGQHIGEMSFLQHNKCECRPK
- CONDITIONS_USED: ITC, 20 °C, 50 mM HEPES/NaOH, 150 mM NaCl, pH 7.5; first binding site; calculated from Kd (Eq. 1); 95 % confidence interval in brackets
Where a SMILES comes first, the peptide text is derived from it. Bridges are numbered along the chain shown (N, C = ends). [ ]: non-standard residue; d: D form. Nle = CCCC[C@H](N)C(=O)O
PROPERTY: ΔG

Consider the following illustrative entries.
MOLECULE	ASSAY_VALUE
CCCC[C@@H]1NC(=O)[C@H](C(C)C)NC(=O)[C@H](Cc2c[nH]cn2)NC(=O)[C@H]([C@@H](C)CC)NC(=O)[C@H](CC(=O)O)NC(=O)[C@@H](N)CSSC[C@@H]2NC(=O)[C@H](CCC(=O)NCCCC[C@@H](C(=O)N[C@@H](CC(C)C)C(N)=O)NC(=O)[C@H](CCC(=O)O)NC(=O)[C@H](Cc3ccccc3)NC2=O)NC(=O)[C@H](Cc2c[nH]c3ccccc23)NC(=O)[C@H](CCC(=O)O)NC(=O)[C@H](Cc2c[nH]c3ccccc23)NC1=O [3 c]	−.89 [−10.01; −9.78] kcal⋅mol^−1
CCCC[C@@H]1NC(=O)[C@H](C(C)C)NC(=O)[C@H](Cc2c[nH]cn2)NC(=O)[C@H]([C@@H](C)CC)NC(=O)[C@H](CC(=O)O)NC(=O)[C@@H](N)CSSC[C@@H]2NC(=O)[C@H](CCCCNC(=O)CC[C@@H](C(=O)N[C@@H](CC(C)C)C(N)=O)NC(=O)[C@H](CCC(=O)O)NC(=O)[C@H](Cc3ccccc3)NC2=O)NC(=O)[C@H](Cc2c[nH]c3ccccc23)NC(=O)[C@H](CCC(=O)O)NC(=O)[C@H](Cc2c[nH]c3ccccc23)NC1=O [4 c] (H-CDIHV[Nle]WEWKCFEEL-NH2; disulfide 1-11; lactam 10-14)	−9.16 [−9.27; −9.05] kcal⋅mol^−1
CCCC[C@@H]1NC(=O)[C@H](C(C)C)NC(=O)[C@H](Cc2c[nH]cn2)NC(=O)[C@H]([C@@H](C)CC)NC(=O)[C@H](CC(=O)O)NC(=O)[C@@H](N)CSSC[C@@H](C(=O)N[C@@H](Cc2ccccc2)C(=O)N[C@@H](CCC(=O)O)C(=O)N[C@@H](CC(=O)O)C(=O)N[C@@H](CC(C)C)C(N)=O)NC(=O)[C@H](CCCCN)NC(=O)[C@H](Cc2c[nH]c3ccccc23)NC(=O)[C@H](CCC(=O)O)NC(=O)[C@H](Cc2c[nH]c3ccccc23)NC1=O [compound 1] (H-CDIHV[Nle]WEWKCFEDL-NH2; disulfide 1-11)	−9.05 [−9.15; −8.97] kcal⋅mol^−1

Parameters: items (list). Returns: ΔG for each item.
1. CCCC[C@@H]1NC(=O)[C@H](C(C)C)NC(=O)[C@H](Cc2c[nH]cn2)NC(=O)[C@H]([C@@H](C)CC)NC(=O)[C@H](CC(=O)O)NC(=O)[C@@H](N)CSSC[C@@H](C(=O)N[C@@H](Cc2ccccc2)C(=O)N[C@@H](CCC(=O)O)C(=O)N[C@@H](CCCCN)C(=O)N[C@@H](CC(C)C)C(N)=O)NC(=O)[C@H](CC(=O)O)NC(=O)[C@H](Cc2c[nH]c3ccccc23)NC(=O)[C@H](CCC(=O)O)NC(=O)[C@H](Cc2c[nH]c3ccccc23)NC1=O [compound 2]
2. CCCC[C@@H]1NC(=O)[C@H](C(C)C)NC(=O)[C@H](Cc2c[nH]cn2)NC(=O)[C@H]([C@@H](C)CC)NC(=O)[C@H](CC(=O)O)NC(=O)[C@@H](N)CSSC[C@@H](C(=O)N[C@@H](Cc2ccccc2)C(=O)N[C@@H](CCC(=O)O)C(=O)N[C@@H](CCC(=O)O)C(=O)N[C@@H](CC(C)C)C(N)=O)NC(=O)[C@H](CCCCN)NC(=O)[C@H](Cc2c[nH]c3ccccc23)NC(=O)[C@H](CCC(=O)O)NC(=O)[C@H](Cc2c[nH]c3ccccc23)NC1=O [compound 4] (H-CDIHV[Nle]WEWKCFEEL-NH2; disulfide 1-11)

1. −9.13 [−9.21; −9.05] kcal⋅mol^−1
2. −9.22 [−9.27; −9.16] kcal⋅mol^−1
